Taken from paper PMC10793102.

- Tested on: FADD−/− Jurkat
- Measurement Description: Cell viability assay, protection from necroptosis in FADD−/− Jurkat cells
- Format: cell-based
- Conditions: Homo sapiens, 16 h, read-out: EC50 FADD−/− Jurkat TNFα
pEC50: −log10 of the molar value.
pEC50 below 8 gives label 0; pEC50 at or above it gives label 1.

pEC50 >= 8 for Cn1ncc(C(=O)NCc2ccc(-c3ncnc4[nH]ccc34)cc2)c1Cc1ccccc1 [compound 38] ? label 0

Form field: pEC50 at least 8? Entry: COc1ccc2c(cnn2-c2ccc(CNC(=O)c3cnn(C)c3Cc3ccccc3)cc2)c1 [compound 36] label 0

hey, is pEC50 for this one >= 8? Nc1ncnc2c1ncn2-c1ccc(CNC(=O)c2ccc(F)n2Cc2ccccc2)cc1 [compound 51] label 1

// inclusive: pEC50 at least 8? input: C[C@H](NC(=O)c1nnn(C)c1Cc1ccccc1)c1ccc(-n2cnc3c(N)ncnc32)cc1 [compound 58] label 1

Please tell me: is the compound COc1ccc2ncn(-c3ccc(CNC(=O)c4cnn(C)c4Cc4ccccc4)cc3)c2c1 [compound 35] at or over 8 in terms of pEC50? label 1

###

- System: L929
- Measurement Description: Cell viability assay, protection from necroptosis in L929 cells
- Assay type: cell-based, mouse
- Conditions: Mus musculus, L929, 16 h, read-out: EC50 L929 T + S
Threshold-based label: EC50 under 1 nM gives Yes, EC50 not under 1 nM gives No.

Below, 2 compounds whose answers are already recorded.
>>> assigned_class("Cn1ncc(C(=O)NCc2ccc(-n3cnc4cc(C(=O)NCCN5CCOCC5)ccc43)cc2)c1Cc1ccccc1")
"No"
>>> assigned_class("COc1ccc2ncn(-c3ccc(CNC(=O)c4cnn(C)c4Cc4ccccc4)cc3)c2c1")
"Yes"

API: query returns whether the compound falls strictly under 1 nM in EC50. Query: C[C@@H](NC(=O)c1cnn(C)c1Cc1ccccc1)c1ccc(-n2cnc3c(N)ncnc32)cc1 No

###

Each entry below carries its recorded EC50.
- Test system: FADD−/− Jurkat
- Measurement Description: Cell viability assay, protection from necroptosis in FADD−/− Jurkat cells
- Type: cell-based
- Conditions: Homo sapiens, 16 h, read-out: EC50 FADD−/− Jurkat TNFα
Kindly provide the numeric value in nM only, without the unit symbol.

Below, 5 compounds whose answers are already recorded.
>>> result("C[C@H](NC(=O)c1c(Cl)nn(C)c1Cc1ccccc1)c1ccc(-n2cnc3c(N)ncnc32)cc1 [compound 57]")
0.09
>>> result("COc1cc2ncn(-c3ccc(CNC(=O)c4cnn(C)c4Cc4ccccc4)cc3)c2cc1OC [compound 33]")
0.02
>>> result("Cn1nc(C(=O)NCc2ccc(-n3cnc4c(N)ncnc43)cc2)cc1Cc1ccccc1 [compound 43]")
0.06
>>> result("C[C@H](NC(=O)c1cnn(C)c1Cc1ccccc1)c1ccc(-n2cnc3c(N)ncnc32)cc1 [compound 54]")
0.08
>>> result("CNC(=O)c1ccc2c(c1)ncn2-c1ccc(CNC(=O)c2cn(Cc3ccccc3)nn2)cc1 [compound 24]")
233

// query EC50 value for entry Cn1ncc(C(=O)NCc2ccc(-n3ncc4c(N)ncnc43)cc2)c1Cc1ccccc1 [compound 41] 0.4

Fill blank: measured EC50 of the compound Cn1nc(C(=O)NCc2ccc(-n3ncc4c(N)ncnc43)cc2)cc1Cc1ccccc1 [compound 44] is ____. 71

So what's the measured EC50 for this one? Nc1ncnc2c1ncn2-c1ccc(CNC(=O)c2ccc(Cl)n2Cc2ccccc2)cc1 [compound 52] 6.6

###

- System: FADD−/− Jurkat
- Measurement Description: Cell viability assay, protection from necroptosis in FADD−/− Jurkat cells
- Type: cell-based
- Conditions: Homo sapiens, 16 h, read-out: EC50 FADD−/− Jurkat TNFα
EC50 vs 0.06 nM: less than gives yes (1); not less than gives no (0).

>>> assigned_class("CCn1ncc(C(=O)NCc2ccc(-n3cnc4c(N)ncnc43)cc2)c1Cc1ccccc1 [compound 47]")
"no (0)"
>>> assigned_class("CNC(=O)c1ccc2c(c1)ncn2-c1ccc(CNC(=O)c2cnn(C)c2Cc2ccccc2)cc1 [compound 27]")
"no (0)"
>>> assigned_class("CN1CCN(CCNC(=O)c2ccc3c(c2)ncn3-c2ccc(CNC(=O)c3cnn(C)c3Cc3ccccc3)cc2)CC1 [compound 31]")
"yes (1)"
>>> assigned_class("Cn1nc2c(c1Cc1ccccc1)C(=O)N(Cc1ccc(-n3cnc4c(N)ncnc43)cc1)C2 [compound 60]")
"yes (1)"
>>> assigned_class("CNC(=O)c1ccc2c(c1)ncn2-c1ccc(CNC(=O)c2ccc(F)n2Cc2ccccc2)cc1 [compound 26]")
"no (0)"
>>> assigned_class("C[C@@H](NC(=O)c1cnn(C)c1Cc1ccccc1)c1ccc(-n2cnc3c(N)ncnc32)cc1 [compound 55]")
"no (0)"

Given the entry N#Cc1ccc(C(=O)NCc2ccc(-n3cnc4c(N)ncnc43)cc2)n1Cc1ccccc1 [compound 53] , would its reported EC50 be below 0.06 nM? no (0)

###

- Tested on: L929
- Measurement Description: Cell viability assay, protection from necroptosis in L929 cells
- Format: cell-based, mouse
- Conditions: Mus musculus, L929, 16 h, read-out: EC50 L929 T + S
Readout: log10 EC50 (log10 of the value in nM)
Please be aware that the numbers have been log10-transformed from EC50 in nM.

>>> result("CNC(=O)c1ccc2c(c1)ncn2-c1ccc(CC(=O)N(O)Cc2ccccc2)cc1")
1.99
>>> result("CNC(=O)c1ccc2c(c1)ncn2-c1ccc(CNC(=O)c2ccc(F)n2Cc2ccccc2)cc1")
1.53
>>> result("Cn1nc(C(=O)NCc2ccc(-n3cnc4c(N)ncnc43)cc2)cc1Cc1ccccc1")
2.58
>>> result("C[C@@H](c1ccc(-n2cnc3c(N)ncnc32)cc1)N1CCc2nn(C)c(Cc3ccccc3)c2C1=O")
0.11
>>> result("Cn1nc(Cl)c(C(=O)NCc2ccc(-n3cnc4c(N)ncnc43)cc2)c1Cc1ccccc1")
0.66

Would you kindly look at the next entry?
Form field: reported log10 EC50 of COc1ccc2c(c1)ncn2-c1ccc(CNC(=O)c2cnn(C)c2Cc2ccccc2)cc1 -1.10
